Molecular target: UniProt:P48730
Sequence (P48730 whole entry, looked up): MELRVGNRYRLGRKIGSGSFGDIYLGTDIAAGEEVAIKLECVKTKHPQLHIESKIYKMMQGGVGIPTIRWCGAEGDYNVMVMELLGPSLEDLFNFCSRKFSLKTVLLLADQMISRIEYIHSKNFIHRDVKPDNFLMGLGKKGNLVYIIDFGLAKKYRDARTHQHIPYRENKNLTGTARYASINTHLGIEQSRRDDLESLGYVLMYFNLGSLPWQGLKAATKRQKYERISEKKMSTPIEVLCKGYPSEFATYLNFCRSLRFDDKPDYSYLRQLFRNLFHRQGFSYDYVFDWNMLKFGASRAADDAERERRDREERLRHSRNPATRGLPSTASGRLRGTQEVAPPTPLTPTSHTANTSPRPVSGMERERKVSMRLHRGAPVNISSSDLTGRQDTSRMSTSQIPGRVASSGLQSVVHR
Assay: radiometric filter-binding kinase assay
Settings: compound 10.0 µM
Rule: measured residual activity below 90% gets Met; anything equal to or greater than 90% gets Not met.

Examples from the recorded data:
Ask: is_below(residual activity, 90%) for CCOC(=O)c1ccc(N2NC(=O)/C(=C/c3ccc([N+](=O)[O-])o3)C2=O)cc1 ?
Result: Not met

Ask: Try Cc1ccc(=O)n(-c2ccccc2)c1 next.
Result: Not met

Ask: Param item: NS(=O)(=O)OC[C@@H]1C[C@@H](n2ccc3c(N[C@H]4CCc5ccccc54)ncnc32)C[C@@H]1O
Result: Met

Ask: Subsequent entry: COc1ccc2c(c1)c1c3c(c4c5ccccc5n(C)c4c1n2CC(O)CN(C)C)C(=O)NC3=O (configuration not stated)
Result: Met

Ask: Further, for Cc1ccc(Sc2cnc(Nc3cccc(Br)n3)s2)cc1C(=O)N1CCN(C(=O)CN)CC1 ?
Result: Met

// next entry
Ask: Item N#Cc1c(C2CCNCC2)cc(-c2c(O)cccc2OCC2CC2)nc1N : residual activity beneath 90%, strictly?
Result: Met

Source: the kinase profiling compilation of Christmann-Franck et al. (2016)
